molecular target: Mitogen-activated protein kinase 10 (Homo sapiens); assay: Inhibition of JNK3 by HRTF
Sequence (P53779 whole entry): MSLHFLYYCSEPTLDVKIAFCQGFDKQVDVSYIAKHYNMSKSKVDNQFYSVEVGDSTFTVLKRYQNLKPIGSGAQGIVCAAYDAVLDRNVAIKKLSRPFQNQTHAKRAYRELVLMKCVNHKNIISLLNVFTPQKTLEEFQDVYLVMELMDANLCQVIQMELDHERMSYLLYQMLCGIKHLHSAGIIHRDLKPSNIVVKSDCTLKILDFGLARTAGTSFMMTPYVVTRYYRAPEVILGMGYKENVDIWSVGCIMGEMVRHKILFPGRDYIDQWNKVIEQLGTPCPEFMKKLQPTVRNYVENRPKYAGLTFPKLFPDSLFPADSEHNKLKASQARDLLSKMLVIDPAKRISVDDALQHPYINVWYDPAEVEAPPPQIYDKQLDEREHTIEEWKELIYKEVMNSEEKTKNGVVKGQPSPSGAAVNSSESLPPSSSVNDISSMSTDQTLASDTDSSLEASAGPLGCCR
measured-metric: pIC50
Please keep in mind that pIC50 is minus log10 of the molar concentration; only the number is needed.

{"columns": ["molecule", "pIC50"],
 "data": [
  ["Cn1cc(-c2cccc3cnc(Nc4ccc(-n5cnc(N6CCOCC6)n5)cc4)nc23)cn1", 7.70],
  ["Cc1ccc(-c2ncn(-c3ccc(Nc4ncc5ccc(-c6cn[nH]c6)cc5n4)cc3)n2)cn1", 7.30],
  ["Cn1cc(-c2ccc3cnc(Nc4ccc(-n5cnc(N6CCOCC6)n5)cc4)nc3c2-c2ccccc2)cn1", 8.00],
  ["c1cc(-n2cnc(N3CCOCC3)n2)ccc1Nc1ncc2ccc(-c3cn[nH]c3)cc2n1", 7.30],
  ["c1ccc(-c2cccc3cnc(Nc4ccc(-n5cnc(N6CCOCC6)n5)cc4)nc23)cc1", 7.22],
  ["c1cc(-n2cnc(N3CCOCC3)n2)ccc1Nc1ncc2ccc(N3CCOCC3)cc2n1", 5.36],
  ["COc1ccc(-c2cccc3cnc(Nc4ccc(-n5cnc(C)n5)cc4)nc23)cc1F", 7.10],
  ["Cc1ccc(-c2cccc3cnc(Nc4ccc(F)cc4)nc23)cn1", 6.77],
  ["Cc1ncn(-c2ccc(Nc3ncc4cccc(-c5nccs5)c4n3)cc2)n1", 7.70],
  ["c1cncc(-c2ccc3cnc(Nc4ccc(-n5cnc(N6CCOCC6)n5)cc4)nc3c2)c1", 6.68]
]}

As a next step, examine the compound that follows.
Tell me measured pIC50 for `Cn1cc(-c2ccc3cnc(Nc4ccc(-n5cnc(N6CCOCC6)n5)cc4)nc3c2Cl)cn1` please.
7.40
